Molecular target: human recombinant GST cleaved CSNK1D (Homo sapiens)
Construct: GST (cleaved yes)
Sequence (P48730 whole entry): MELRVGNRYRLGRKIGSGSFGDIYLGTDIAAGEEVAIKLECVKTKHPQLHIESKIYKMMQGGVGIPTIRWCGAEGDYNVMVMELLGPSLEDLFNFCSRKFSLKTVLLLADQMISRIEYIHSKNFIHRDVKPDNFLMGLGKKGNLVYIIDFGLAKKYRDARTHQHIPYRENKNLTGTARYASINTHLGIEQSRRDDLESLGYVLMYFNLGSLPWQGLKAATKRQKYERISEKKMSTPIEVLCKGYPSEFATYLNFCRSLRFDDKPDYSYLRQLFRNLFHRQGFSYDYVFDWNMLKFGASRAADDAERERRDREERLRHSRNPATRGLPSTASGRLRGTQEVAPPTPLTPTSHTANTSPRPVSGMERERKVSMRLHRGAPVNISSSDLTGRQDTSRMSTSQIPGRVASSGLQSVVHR
Experiment: Purified Enzyme Assay (ADP-Glo CSNK1D Kinase Assay)
Conditions: 2 nM CSNK1D; peptide substrate 150 μM; ATP 20 μM; 45 minutes at room temperature
Readout: IC50 (nM)

compound=Fc1ccc(-c2nn3c(c2-c2c(F)cnc4[nH]ncc24)CC(F)(F)CC3)cc1 test_result=7
compound=CC(=O)Nc1cc(-c2c(-c3ccc(F)cc3)nn3c2OCCCC3)ccn1 test_result=1
compound=Cc1cc(-c2c(-c3ccc(F)cn3)nn3c2CNCC3)c2cn[nH]c2n1 test_result=19
compound=Fc1ccc(-c2nn3c(c2-c2ccnc4[nH]ncc24)COC2(CC2)C3)nc1 test_result=8

A. COCC1(F)CCc2c(-c3cc(C)nc4[nH]ncc34)c(-c3ccc(F)cn3)nn2C1 (single isomer, unassigned)
B. Fc1ccc(-c2nn3c(c2-c2ccnc4[nH]ncc24)CCC2(C3)CC2(F)F)cc1 (single isomer, unassigned) [Example 326]
Query: // which entry has the larger IC50 value, A or B ? State the label of the item chosen.
Reply: A
(A: 89 nM, B: 6 nM)

I. Cn1cc2nccc(-c3c(-c4ccc(F)cn4)nn4c3COC(C)(C)C4)c2n1
II. [2H]C([2H])([2H])C1(C([2H])([2H])[2H])Cc2c(-c3c(F)cnc4[nH]ncc34)c(-c3ccc(F)cn3)nn2C1
Query: Of I and II , which one carries the higher reported IC50? State your choice using its label.
Reply: I
(I: 106 nM, II: 3 nM)

P. Fc1ccc(-c2nn3c(c2-c2ccnc4[nH]ncc24)C2CCC3CC2)nc1
Q. CCC(=O)Nc1cc(-c2c(-c3ccc(F)cn3)nn3c2OCC(C)(C)C3)ccn1
R. Cc1cc(-c2c(-c3ccc(F)cn3)nn3c2COCC3)c2cn[nH]c2n1
S. Cc1nc(-c2c(-c3ccc(F)cc3)nn3c2CC[C@]2(C3)CC2(F)F)c2cn[nH]c2n1 (single isomer, unassigned)
Query: Give the ascending ranking of the items by reported IC50. Reply with the item labels sorted in the order that was asked for.
Reply: S, Q, P, R

Origin of the recorded values: patent US20230339970A1
